# IC50 per record follows
Target: DeepVent(exo−) DNA polymerase (Pyrococcus sp. GB-D, UniProt Q51334, D141A/E143A)
Sequence (Q51334 with tags, fused parts or gaps D141A/E143A): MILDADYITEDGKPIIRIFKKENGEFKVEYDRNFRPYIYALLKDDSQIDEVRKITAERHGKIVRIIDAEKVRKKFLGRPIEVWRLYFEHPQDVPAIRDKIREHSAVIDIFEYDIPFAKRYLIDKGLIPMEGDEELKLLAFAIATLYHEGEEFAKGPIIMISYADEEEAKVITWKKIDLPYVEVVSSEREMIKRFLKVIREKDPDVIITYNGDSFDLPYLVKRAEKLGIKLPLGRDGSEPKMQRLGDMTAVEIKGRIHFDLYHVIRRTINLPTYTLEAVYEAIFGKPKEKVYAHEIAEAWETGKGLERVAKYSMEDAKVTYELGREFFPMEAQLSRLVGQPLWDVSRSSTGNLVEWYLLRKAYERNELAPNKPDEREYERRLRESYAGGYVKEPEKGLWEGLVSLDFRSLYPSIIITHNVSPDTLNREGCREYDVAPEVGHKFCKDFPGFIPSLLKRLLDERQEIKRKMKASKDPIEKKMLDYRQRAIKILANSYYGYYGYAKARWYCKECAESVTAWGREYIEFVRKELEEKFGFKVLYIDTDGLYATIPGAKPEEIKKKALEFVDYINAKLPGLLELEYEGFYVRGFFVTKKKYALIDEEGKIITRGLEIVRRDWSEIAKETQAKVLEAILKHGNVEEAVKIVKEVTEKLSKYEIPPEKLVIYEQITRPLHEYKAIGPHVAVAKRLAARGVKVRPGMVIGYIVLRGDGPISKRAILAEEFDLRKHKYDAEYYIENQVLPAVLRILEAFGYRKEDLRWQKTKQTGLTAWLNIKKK
Experiment: PEP
Assay type: biochemical, Pyrococcus species GB-D
assay.metric: IC50 (nM)

[[record]]
compound = "Nc1ncnc2c1ncn2[C@H]1C[C@H](O)[C@@H](COP(=O)(O)OP(=O)(O)OP(=O)(O)O)O1 [dATP, 2′-Deoxyadenosine triphosphate]"
target_system = "DeepVent(exo−) DNA polymerase (Pyrococcus sp. GB-D, UniProt Q51334, D141A/E143A)"
assay_metric = "IC50"
obs_value = 2.8

[[record]]
compound = "O=[N+]([O-])c1ccccc1CNc1ncnc2c1ncn2[C@H]1C[C@H](O)[C@@H](COP(=O)(O)OP(=O)(O)OP(=O)(O)O)O1 [Compound IIIc]"
target_system = "DeepVent(exo−) DNA polymerase (Pyrococcus sp. GB-D, UniProt Q51334, D141A/E143A)"
assay_metric = "IC50"
obs_value = 11

[[record]]
compound = "Nc1ncnc2c1ncn2[C@H]1CC[C@@H](COP(=O)(O)OP(=O)(O)OP(=O)(O)O)O1 [ddATP, 2′,3′-dideoxyadenosine triphosphate, reference compound]"
target_system = "DeepVent(exo−) DNA polymerase (Pyrococcus sp. GB-D, UniProt Q51334, D141A/E143A)"
assay_metric = "IC50"
obs_value = 3400


* * *

Molecular target: Vent(exo−) DNA polymerase (Thermococcus litoralis, UniProt P30317, D141A/E143A)
Sequence (P30317 with tags, fused parts or gaps D141A/E143A): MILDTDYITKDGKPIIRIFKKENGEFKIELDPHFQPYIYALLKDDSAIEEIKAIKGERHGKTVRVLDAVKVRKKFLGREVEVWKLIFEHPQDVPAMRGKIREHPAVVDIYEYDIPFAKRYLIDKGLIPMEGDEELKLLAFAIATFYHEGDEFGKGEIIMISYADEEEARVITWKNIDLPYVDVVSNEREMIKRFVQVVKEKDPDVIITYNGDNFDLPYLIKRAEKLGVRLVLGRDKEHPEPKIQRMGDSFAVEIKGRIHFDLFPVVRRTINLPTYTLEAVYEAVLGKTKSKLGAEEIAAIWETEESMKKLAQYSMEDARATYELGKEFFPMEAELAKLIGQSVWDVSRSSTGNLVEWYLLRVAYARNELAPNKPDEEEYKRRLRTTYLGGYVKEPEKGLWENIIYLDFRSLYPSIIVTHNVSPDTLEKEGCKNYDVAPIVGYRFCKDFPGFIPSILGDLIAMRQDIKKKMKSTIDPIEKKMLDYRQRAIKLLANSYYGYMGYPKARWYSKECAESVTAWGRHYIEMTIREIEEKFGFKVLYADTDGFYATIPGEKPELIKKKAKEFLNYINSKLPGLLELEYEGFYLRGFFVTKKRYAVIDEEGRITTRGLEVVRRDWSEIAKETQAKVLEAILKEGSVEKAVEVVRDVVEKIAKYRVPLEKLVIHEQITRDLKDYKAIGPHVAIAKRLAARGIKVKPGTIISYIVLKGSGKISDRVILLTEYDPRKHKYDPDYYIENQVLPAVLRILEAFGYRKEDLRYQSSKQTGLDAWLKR
Test: PEP
Assay type: biochemical
assay.metric: IC50 (nM)

[[record]]
compound = "O=[N+]([O-])c1ccccc1CNc1ncnc2c1ncn2[C@H]1C[C@H](O)[C@@H](COP(=O)(O)OP(=O)(O)OP(=O)(O)O)O1"
obs_value = 2.1

[[record]]
compound = "Nc1ncnc2c1ncn2[C@H]1CC[C@@H](COP(=O)(O)OP(=O)(O)OP(=O)(O)O)O1 [ddATP, 2′,3′-dideoxyadenosine triphosphate, reference compound]"
obs_value = 550

[[record]]
compound = "Nc1ncnc2c1ncn2[C@H]1C[C@H](O)[C@@H](COP(=O)(O)OP(=O)(O)OP(=O)(O)O)O1 [dATP, 2′-Deoxyadenosine triphosphate]"
obs_value = 1.6

